Type: in vitro ADME, mouse
Conditions: mouse, hepatocytes
Hi there, I'd appreciate the recorded Mouse Heps Cl for every entry that follows.
Numbers only, in mL/min/g.

1) CCOC(=O)c1nc(COC)oc1NC(=O)c1c(F)c(F)c(F)c(F)c1F [Compound 33]
7.5

Provide Mouse Heps Cl for all items below, preserving their order.
1. Cc1ncc(NC(=O)c2c(F)c(F)c(F)c(F)c2F)o1 [Compound 37, Cc1ncc(o1)NC(=O)c1c(c(c(c(c1F)F)F)F)F]
2. Cc1nc(C(=O)OC(C)(C)C)c(NC(=O)c2c(F)c(F)c(F)c(F)c2F)o1 [Compound 36]
3. CCOC(=O)c1nc(CN(C)C)oc1NC(=O)c1c(F)c(F)c(F)c(F)c1F [Compound 35]
4. CCOC(=O)c1nc(N(C)C)oc1NC(=O)c1c(F)c(F)c(F)c(F)c1F [Compound 32]
5. Cc1nnc(-c2nc(C)oc2NC(=O)c2c(F)c(F)c(F)c(F)c2F)o1 [Compound 42]

1. 5.8
2. 26
3. 4.7
4. 22
5. 2.5

Provide Mouse Heps Cl for all items below, preserving their order.
1. Cc1nc(C(=O)N(C)C)c(NC(=O)c2c(F)c(F)c(F)c(F)c2F)o1 [Compound 40]
2. Cc1nc(C(=O)O)c(NC(=O)c2c(F)c(F)c(F)c(F)c2F)o1 [Compound 38]

1. 7.3
2. 1.3

---

Format: in vitro ADME, mouse
Conditions: mouse, hepatocytes
Hi there, I'd appreciate the recorded Mouse Heps Cl for every entry that follows.

Examples with their reported Mouse Heps Cl follow.
1) COC(=O)c1c(C)noc1NC(=O)c1c(F)c(F)c(F)c(F)c1F
45.6 mLmin/g
2) CN(C)c1ncnc2oc(-c3c(F)c(F)c(F)c(F)c3F)nc12
>50 mLmin/g
3) CCOC(=O)c1nc(C)oc1NCc1c(F)c(F)c(F)c(F)c1F
>50 mLmin/g
4) COC(=O)c1cnccc1NC(=O)c1c(F)c(F)c(F)c(F)c1F
>50 mLmin/g
5) COC(=O)c1c(NC(=O)c2c(F)c(F)c(F)c(F)c2F)sc2c1CCCCC2 [TP2, reference compound]
43.2 mLmin/g

Please turn your attention to the following entry.
Data request, read-out Mouse Heps Cl, for Oc1ncnc2oc(-c3c(F)c(F)c(F)c(F)c3F)nc12
>50 mLmin/g
